- MEASUREMENT NOTES: Drug concentration in rat plasma at 6 mg/kg, iv measured after 24 hrs by LC/MS/MS analysis
MEASUREMENT LABEL: concentration at 24 h

Query block: I would be grateful if you could share the reported concentration at 24 h for CN1CCN(c2cc(-c3ccncc3)c(-c3ccc4ccccc4c3)nn2)CC1 .
Result block: 390 ng/mL

---

- Tested on: Blood
- MEASUREMENT NOTES: Antiinflammatory activity against LPS-stimulated C57BL/6 mouse whole blood assessed as reduction in TNF-alpha at 1 nM incubated for 24 hrs by ELISA based method
- Assay type: functional
- Parameters: scale not given: the % may be the effect or the level left
Assign Activity to each entry below.
Numbers only, in %.

{"MOLECULE SMILES": "NCCNC(=O)c1ccc2c(c1)C(=O)c1ccc(Nc3ccc(F)cc3F)cc1CC2", "TESTED ON": "Blood", "MEASUREMENT LABEL": "Activity", "NUMBER": 5}

For each of the molecules below, state Activity.
1. O=C(NC(CO)(CO)CO)c1ccc2c(c1)C(=O)c1ccc(Nc3ccc(F)cc3F)cc1CC2
2. O=C(NCCOCCO)c1ccc2c(c1)C(=O)c1ccc(Nc3ccc(F)cc3F)cc1CC2
3. Nc1ccccc1Nc1ccc2c(c1)CCc1ccc(C(=O)NCCC(=O)O)cc1C2=O
4. O=C(Nc1ccccc1)c1ccc2c(c1)C(=O)c1ccc(Nc3ccc(F)cc3F)cc1CC2
5. O=C(O)CCNC(=O)c1ccc2c(c1)C(=O)c1ccc(Nc3ccc(F)cc3F)cc1CC2
6. COC(=O)[C@@H](N)CCNC(=O)c1ccc2c(c1)C(=O)c1ccc(Nc3ccc(F)cc3F)cc1CC2

Result block:
[5, 5, 5, 5, 5, 5]
